- Test system: OVCAR-4
- procedure details: NCI tumour cell line growth inhibition, 48 h
Activity calls are given as the source filed them. No stated cut-off is given here; in the data, active = GI50 up to about 1.1 µM and inactive = higher.
Below is a list of entries, each paired with its recorded GI50 value.

Please review the following examples before continuing.
Nc1nc(N)c2ncn(Cc3ccccc3CO)c2n1; > 100 µM (inactive)
CCOP(=O)(OCC)/C(C#N)=C/c1cccn1C; > 100 µM (inactive)
COC(=O)/C([Se]c1c(C)cc(C)cc1C)=C(/[Se]c1c(C)cc(C)cc1C)C(=O)OC; > 100 µM (inactive)
COC(=O)[C@H]1C=NN[C@@H]1C(=O)N1[C@H]2CC3CC[C@@]2(CS1(=O)=O)C3(C)C; > 100 µM (inactive)
O=C(CCCN1CCC2(CC1)OC(=O)N(c1ccccc1)C2=O)c1ccccc1; > 100 µM (inactive)

**Q:** Fill in: GI50 of CSc1ccc(OCC2OC2O)cc1 (stereo unspecified) is ___
**A:** 30.8 µM (inactive)

**Q:** Try this compound too: Cc1ccc(SCN2CCCCC2)cc1.O=C(Cl)c1ccc([N+](=O)[O-])cc1
**A:** 12.4 µM (inactive)

**Q:** Try this compound too: Cc1ccc(/N=N/c2ccc(O)c(CN(C)C)c2)cc1C
**A:** 43.4 µM (inactive)

**Q:** Try this compound too: COc1ccc(OC)c(NCC#N)c1
**A:** > 100 µM (inactive)

**Q:** Try this compound too: COC1OC2COC(c3ccccc3)OC2C(O)C1OC(=S)c1ccccc1 (stereo unspecified)
**A:** 73.6 µM (inactive)

**Q:** Try this compound too: Cc1ccc(N(C)S(=O)(=O)c2ccccc2)cc1
**A:** > 100 µM (inactive)

====

- Test system: HCT-116
- procedure details: NCI tumour cell line growth inhibition, 48 h
The source made the active and inactive calls. Cut-off read from the data, not from the text of the source: active = GI50 up to about 1.1 µM and inactive = higher.
Choose one outcome from this list and give only that: active, inactive

**Q:** Could you kindly confirm the outcome this assay logged for O=C1/C(=C/c2ccccc2)CN(C(=O)Oc2ccc(Cl)cc2)C/C1=C\c1ccccc1 ?
**A:** active

**Q:** Try this compound too: CCOC(=O)C(=[N+]=[N-])C(=O)Nc1nn2nnnc2c2ccccc12
**A:** inactive

**Q:** Try this compound too: COC(=O)C1=C(C(=O)OC)SC2(S1)C(C(=O)OC)=C(C(=O)OC)Sc1c2ss/c1=N\c1ccc(Cl)cc1
**A:** active

**Q:** Try this compound too: CC[C@H](CO)Nc1nc(NCc2ccccc2)c2ncn(C(C)C)c2n1
**A:** inactive

====

- Test system: SNB-75
- procedure details: NCI tumour cell line growth inhibition, 48 h
Where a name gives a salt, the structure may show the parent alone. Activity calls are given as the source filed them. No stated cut-off is given here; in the data, active = GI50 up to about 1.1 µM and inactive = higher.
Choose one outcome from this list and give only that: y for active, n for inactive

Example results:
COc1c(C2(c3ccc(F)cc3)SCCCS2)c(=O)c1=O; n
COC(c1cccc(C(O)(C(F)(F)F)C(F)(F)F)c1)(C(F)(F)F)C(F)(F)F; n
CN(C)CCOC(=O)COc1ccc(Cl)cc1 [CENTROPHENOXINE HYDROCHLORIDE]; n
CCN(CCCOc1ccccc1)CCN(CC)CCCOc1ccccc1; n
C(=N\OCc1ccccc1)/c1ncccc1C1OCCO1; n

**Q:** Could you kindly confirm the outcome this assay logged for COc1cc(OC)c(/C=N/N=C(\N)NO)c(OC)c1 ?
**A:** y

**Q:** Try this compound too: Cc1[nH]c2ccccc2c1CC/C(=N\Nc1ccccc1)c1ccccc1
**A:** n

**Q:** Try this compound too: CC1(C(=O)O)CCOc2ccccc21 (stereo unspecified)
**A:** n

**Q:** Try this compound too: C=CCOC(=O)C1=C(CCC[C@@H](C)O[Si](C)(C)C(C)(C)C)N=C(N)N2[C@H](CCO)CC[C@@H]12
**A:** n

**Q:** Try this compound too: Oc1cc(-c2cccc(Br)c2)nc2cc3c(cc12)OCO3
**A:** n

**Q:** Try this compound too: Cc1ccc(/N=N/c2ccc(O)c(CN(C)C)c2)cc1C
**A:** n

====

- Test system: TK-10
- procedure details: NCI tumour cell line growth inhibition, 48 h
Activity calls are given as the source filed them. Cut-off read from the data, not from the text of the source: active = GI50 up to about 1.1 µM and inactive = higher.
Below is a list of entries, each paired with its recorded GI50 value.

Please review the following examples before continuing.
O=C(O)CO[C@@]12C#C/C=C\C#C[C@@H]3N(C(=O)Oc4ccccc4)c4ccccc4[C@]14O[C@@]34CCC2; > 100 µM (inactive)
CC(=O)N1C(=O)c2cc3ccccc3cc21; > 100 µM (inactive)
Cc1nc(=O)n2c(c1C(=O)Nc1ccc(Cl)cc1)NCCC2; > 100 µM (inactive)
CC(C)CCC[C@@H](C)[C@H]1CC[C@H]2[C@@H]3CC=C4CC(OCCCCN(O)CCCSC5OC(CO)C(O)C(O)C5O)CC[C@]4(C)[C@H]3CC[C@]12C (some centres not stated); > 100 µM (inactive)
CCN1CCC(O)(/C=C/c2ccc(Cl)cc2)C(C(=O)/C=C/c2ccc(Cl)cc2)C1 (configuration not stated); 31.1 µM (inactive)
O=C1CSC(Cc2nc3ccccc3[nH]2)=N1; 28.2 µM (inactive)
CCC12C=CCN3CC[C@]4(C(=C(C(=O)OC)[C@@H]1Nc1ncnc5c1ncn5C1OC(COC(C)=O)C(OC(C)=O)C1OC(C)=O)Nc1ccccc14)C32 (some centres not stated); 2.87 µM (inactive)
Cc1cccc2c1Oc1cc(Cl)ccc1C2NC(=O)CN(C)C (configuration not stated); > 100 µM (inactive)

**Q:** Fill in: GI50 of Cc1ccccc1NC(=O)CSc1nnc(-c2ccc(/N=C\c3ccc(Cl)cc3)cc2)o1 is ___
**A:** > 100 µM (inactive)

**Q:** Try this molecule too: C=C1CCCC2OC(OC)CCC12 (configuration not stated)
**A:** > 100 µM (inactive)

**Q:** Try this molecule too: OC(c1cc(C(O)(C(F)(F)F)C(F)(F)F)ncn1)(C(F)(F)F)C(F)(F)F
**A:** > 10 µM (inactive)

**Q:** Try this molecule too: COc1ccc(-c2nc(O)c3ccccc3n2)cc1
**A:** > 100 µM (inactive)

**Q:** Try this molecule too: O=C(N/N=C\c1ccc([N+](=O)[O-])s1)c1ccncc1
**A:** 23.1 µM (inactive)

====

- Test system: CAKI-1
- procedure details: NCI tumour cell line growth inhibition, 48 h
Calls of active or inactive are those of the source. No stated cut-off is given here; in the data, active = GI50 up to about 1.1 µM and inactive = higher.
reported property: GI50

Please review the following examples before continuing.
C/C(=N\c1cc(Cl)cc(Cl)c1)c1ccncc1; > 100 µM (inactive)
O=C1/C(=C/c2n[nH]cc2-c2ccc(Cl)cc2)C(=O)N(c2ccccc2)C1c1ccccc1 (stereo unspecified); 10.1 µM (inactive)
Cn1ncc(NCCn2cnc3c2c(=O)n(C)c(=O)n3C)c(Cl)c1=O; > 100 µM (inactive)
CC(Cc1ccc(Cl)cc1Cl)NO (stereo unspecified); > 100 µM (inactive)

Next:
**Q:** Fill in: GI50 of COC(c1cccc(C(O)(C(F)(F)F)C(F)(F)F)c1)(C(F)(F)F)C(F)(F)F is ___
**A:** 24.4 µM (inactive)

====

- Tested on: SK-OV-3
- procedure details: NCI tumour cell line growth inhibition, 48 h
The source made the active and inactive calls. Cut-off read from the data, not from the text of the source: active = GI50 up to about 1.1 µM and inactive = higher.
Choose one outcome from this list and give only that: active, inactive

Example results:
CCOC(=O)C1(Cc2ccc3c(c2)CCC3)Cc2cc3c(cc2C1)CCC3; inactive
CC[C@H](CO)Nc1nc(NCc2ccccc2)c2ncn(C(C)C)c2n1; inactive

**Q:** Could you kindly confirm the outcome this assay logged for CC[C@](C)(O)C(=O)O[C@H]1C(=O)O[C@@H]2C[C@H]3C(C)=CC(=O)[C@@H](O)[C@]3(C)[C@H]3[C@@]4(O)OC[C@]32[C@@H]1[C@@H](C)[C@H]4O ?
**A:** active

**Q:** Try this molecule too: C=C(C(=C)P(=S)(c1ccccc1)c1ccccc1)P(=S)(c1ccccc1)c1ccccc1
**A:** inactive

**Q:** Try this molecule too: O=C1NC(=O)C2=C1CCC2O (centres undefined)
**A:** inactive

**Q:** Try this molecule too: COc1cc(Nc2cnc3cc(F)c(F)cc3n2)cc(OC)c1OC
**A:** inactive

**Q:** Try this molecule too: COc1cc(OC)cc(-c2cc(=O)c3c(OC)c(OC)c(OC)c(OC)c3o2)c1
**A:** inactive

**Q:** Try this molecule too: O=P(O)(O)CN1CCNCCN(CP(=O)(O)O)CCN(CP(=O)(O)O)CCNCC1
**A:** inactive

**Q:** Try this molecule too: CC(C)c1cccc(C(C)C)c1NC(=O)C(=O)C1SC(=S)NC1=O (centres undefined)
**A:** inactive

====

- System: KM-20L2
- procedure details: NCI tumour cell line growth inhibition, 48 h
Calls of active or inactive are those of the source. Cut-off read from the data, not from the text of the source: active = GI50 up to about 1.1 µM and inactive = higher.
reported property: GI50

**Q:** Fill in: GI50 of C(=N\OCc1ccccc1)/c1ncccc1C1OCCO1 is ___
**A:** > 100 µM (inactive)

**Q:** Try this compound too: N=C(N)N/N=C(/CCN1CCCC1)CC(c1ccccc1)c1c(O)c2ccccc2oc1=O (stereo not given)
**A:** > 100 µM (inactive)

**Q:** Try this compound too: CC(=O)Nc1ccc(C(=O)NN2C(=O)C(Cl)C2c2cc(Br)cc(Br)c2O)cc1 (stereo not given)
**A:** > 100 µM (inactive)

**Q:** Try this compound too: COc1cc2c(cc1OC)C(Cl)C(c1ccc(Cl)cc1)=C2Cl (stereo not given)
**A:** 18.1 µM (inactive)

**Q:** Try this compound too: C#CCCCCC#CC1CCCC1C1=CC(=O)c2ccccc21 (stereo not given)
**A:** 10.3 µM (inactive)

**Q:** Try this compound too: O=C1/C(=C/c2ccccc2)CN(C(=O)Oc2ccc(Cl)cc2)C/C1=C\c1ccccc1
**A:** 2.71 µM (inactive)

**Q:** Try this compound too: C=C1CCc2occ(C)c2C2C1C1=C(CC(C)C1=O)C1OC12C (stereo not given)
**A:** > 100 µM (inactive)

**Q:** Try this compound too: Cn1c(=O)c2nc(-c3ccc(Cl)cc3)oc2n(C)c1=O
**A:** > 100 µM (inactive)

**Q:** Try this compound too: CC1=C(O)C(=O)[C@@H]2O[C@@H]2C1=O
**A:** 17.2 µM (inactive)

**Q:** Try this compound too: CCOC(=O)C(N=C(c1ccccc1)c1ccccc1)N(C(=O)OC(C)(C)C)C(=O)OC(C)(C)C (stereo not given)
**A:** > 100 µM (inactive)
